# credit: patent US20210130436A1

- systemUnderTest: T1, human CD28, endogenously expressed on Jurkat/IL2 reporter cells (human, UniProt P10747 19-220)
- T1 construct: This is the endogenous CD28 of Jurkat cells
- protocolDescription: flow cytometry on Jurkat cells (CD28); MFI against WT CD80 ECD-Fc (R&D)
quantityMeasured: Fold change to WT (fold)

binder="variant CD80 IgV-Fc Q33L/E35D/M47L/V68M/L85Q/E88D (Fc fusion, not shown: a dimerising Fc or GST) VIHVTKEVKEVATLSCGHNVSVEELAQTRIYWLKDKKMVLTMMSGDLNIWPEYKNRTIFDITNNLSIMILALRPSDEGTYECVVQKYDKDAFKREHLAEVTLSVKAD" quantitymeasured="Fold change to WT" valuemeasured=0.03
binder="variant CD80 IgV-Fc V22A/R29H/E35D/D46E/M47I (Fc fusion, not shown: a dimerising Fc or GST) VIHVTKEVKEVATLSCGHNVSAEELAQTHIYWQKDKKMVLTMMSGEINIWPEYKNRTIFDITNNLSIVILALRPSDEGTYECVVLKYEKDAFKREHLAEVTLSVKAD" quantitymeasured="Fold change to WT" valuemeasured=0.04
binder="variant CD80 IgV-Fc H18Y/E35D/V68M/L97Q (Fc fusion, not shown: a dimerising Fc or GST) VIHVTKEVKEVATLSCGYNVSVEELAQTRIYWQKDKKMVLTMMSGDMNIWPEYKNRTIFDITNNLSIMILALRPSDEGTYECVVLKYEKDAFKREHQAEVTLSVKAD" quantitymeasured="Fold change to WT" valuemeasured=0.04
binder="variant CD80 IgV-Fc E35D/D46E/M47V/L97Q (Fc fusion, not shown: a dimerising Fc or GST) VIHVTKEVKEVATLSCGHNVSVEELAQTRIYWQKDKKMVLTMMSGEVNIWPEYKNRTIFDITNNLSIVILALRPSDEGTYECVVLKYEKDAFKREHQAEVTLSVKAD" quantitymeasured="Fold change to WT" valuemeasured=0.05
binder="variant CD80 IgV-Fc Q33L/E35D/M47L/A71G/F92S (Fc fusion, not shown: a dimerising Fc or GST) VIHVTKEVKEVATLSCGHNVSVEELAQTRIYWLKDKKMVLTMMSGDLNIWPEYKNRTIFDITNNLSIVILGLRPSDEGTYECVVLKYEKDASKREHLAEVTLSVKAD" quantitymeasured="Fold change to WT" valuemeasured=0.05
binder="variant CD80 IgV-Fc V22A/E35D/V68E/A71D (Fc fusion, not shown: a dimerising Fc or GST, The molecule is an Fc fusion, which the general text describes as a dimer) VIHVTKEVKEVATLSCGHNVSAEELAQTRIYWQKDKKMVLTMMSGDMNIWPEYKNRTIFDITNNLSIEILDLRPSDEGTYECVVLKYEKDAFKREHLAEVTLSVKAD" quantitymeasured="Fold change to WT" valuemeasured=1.83
binder="variant CD80 IgV-Fc Q33L/E35D/N48K/L85Q/L97Q (Fc fusion, not shown: a dimerising Fc or GST) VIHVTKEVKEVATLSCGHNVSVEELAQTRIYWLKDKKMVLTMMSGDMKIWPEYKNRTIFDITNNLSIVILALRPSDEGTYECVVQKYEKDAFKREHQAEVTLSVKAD" quantitymeasured="Fold change to WT" valuemeasured=0.04
binder="variant CD80 IgV-Fc Q33L/E35D/M43V/M47I/A71G (Fc fusion, not shown: a dimerising Fc or GST) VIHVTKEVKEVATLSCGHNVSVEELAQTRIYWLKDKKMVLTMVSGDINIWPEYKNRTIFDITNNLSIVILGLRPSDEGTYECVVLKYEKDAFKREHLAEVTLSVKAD" quantitymeasured="Fold change to WT" valuemeasured=0.04
